The following compounds each carry a recorded Ki for Hs ODCase (Homo sapiens, UniProt P11172).
The answer is to be given in µM; state only the numeric part.

Summary line: CCc1c(F)c(=O)[nH]c(=O)n1C1OC(CO)C(O)C1O (stereo not drawn) , Hs ODCase (Homo sapiens, UniProt P11172), reported Ki = 0.353

For the compound Nc1c(F)c(=O)[nH]c(=O)n1[C@@H]1O[C@H](CO)[C@@H](O)[C@H]1O , the measured Ki on Hs ODCase (Homo sapiens, UniProt P11172) was 16.6

Hs ODCase (Homo sapiens, UniProt P11172) data for O=c1[nH]c(=O)n([C@@H]2O[C@H](COP(=O)(O)O)[C@@H](O)[C@H]2O)cc1F [Compound 5-F-UMP, 5-F-UMP, reference compound] ; its Ki: 97.8

---

Tested on: MCF7
Assay info: In vitro cell proliferation assay (WST.1, Table 5)
Assay type: cell-based
Condition context: Homo sapiens, 72 h; MCF7, day 3
Experimental endpoint: IC50

Study these solved cases before continuing.
- [N-]=[N+]=Nc1cc(=O)[nH]c(=O)n1[C@@H]1O[C@H](CO)C(O)C1O (some centres unmarked): > 50 µM
- Cc1cc(=O)[nH]c(=O)n1C1OC(CO)C(O)C1O (centres unmarked): > 50 µM
- [N-]=[N+]=Nc1c(F)c(=O)[nH]c(=O)n1[C@@H]1O[C@H](CO)[C@@H](O)[C@H]1O: 1 µM

The measured IC50 associated with O=Cc1cc(=O)[nH]c(=O)n1C1OC(CO)C(O)C1O (centres unmarked) reads > 50 µM

Reported IC50 for O=C1C/C(=N\O)N(C2OC(CO)C(O)C2O)C(=O)N1 (centres unmarked) was > 50 µM

---

Test system: T47D
Assay info: In vitro cell proliferation assay (WST.1, Table 5)
Assay type: cell-based
Condition context: Homo sapiens, 72 h, day 3
Method: These cell lines were grown in Iscove's MDM supplemented with 5% fetal calf serum (FCS), 50 μM 2-mercaptoethanol, 100 μg/ml penicillin, and 100 μg/ml streptomycin. […] Cell lines were seeded in triplicate at 10^4 cells/100 μl in 96-well plates. […] WST.1 assay is a calorimetric assay for the nonradioactive quantification of cell proliferation, cell viability, and cytotoxicity. […] These OD values are plotted against concentrations of different compounds and IC50 is determined for each compound.
pIC50: −log10 of the molar value.
# pIC50 per entry

Example cases with answers are listed next.
• O=c1[nH]c(=O)n([C@@H]2O[C@H](CO)C(O)C2O)c(I)c1Br (stereo partly drawn) = < 4.30
• Cc1cc(=O)[nH]c(=O)n1C1OC(CO)C(O)C1O (stereo not drawn) = < 4.30
• Nc1cc(=O)[nH]c(=O)n1[C@@H]1O[C@H](CO)C(O)C1O (stereo partly drawn) = < 4.30
• CC(=O)OCC1OC(n2c(I)cc(=O)[nH]c2=O)C(O)C1O (stereo not drawn) = < 4.30
• [N-]=[N+]=Nc1c(F)c(=O)[nH]c(=O)n1[C@@H]1O[C@H](CO)[C@@H](O)[C@H]1O = < 5.40
• Nc1c(F)c(=O)[nH]c(=O)n1[C@@H]1O[C@H](CO)[C@@H](O)[C@H]1O = < 5.40
• CNc1cc(=O)[nH]c(=O)n1C1OC(CO)C(O)C1O (stereo not drawn) = < 4.30
• [N-]=[N+]=Nc1cc(=O)[nH]c(=O)n1[C@@H]1O[C@H](CO)C(O)C1O (stereo partly drawn) = < 4.30

Reported pIC50 for O=c1cc(I)n([C@@H]2O[C@H](CO)C(O)C2O)c(=O)[nH]1 (stereo partly drawn) was < 4.30

Where do these numbers come from? They come from patent US20100056468A1.
